B1: ZNF263 (parent)
chain: FGGNPRFLSLHRAHLGEEAHKCLE

Variants of: B1
assay-summary: protein stability index of a GFP-peptide fusion (GPS, HEK-293T) (PSI 1-6); higher = more stable;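 note: lentivirally expressed fusions sorted by FACS into six bins by GFP to DsRed ratio, PSI derived from sequencing read proportions per bin multiplied by bin number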
stated-conditions: c terminus: a fixed tail appended
measure: protein stability index
Output: the number by itself.

# annotated cases, reported protein stability index shown
E17C : 2.37
N4W : 2.37
G16Q : 2.76
N4R : 2.46
P5N : 3.16

Per the records, this variant ( F7D ) has protein stability index equal to 3.51
